- TARGET_OR_SYSTEM: Peroxisome proliferator-activated receptor gamma (Homo sapiens, UniProt P37231)
- Sequence (P37231 whole entry): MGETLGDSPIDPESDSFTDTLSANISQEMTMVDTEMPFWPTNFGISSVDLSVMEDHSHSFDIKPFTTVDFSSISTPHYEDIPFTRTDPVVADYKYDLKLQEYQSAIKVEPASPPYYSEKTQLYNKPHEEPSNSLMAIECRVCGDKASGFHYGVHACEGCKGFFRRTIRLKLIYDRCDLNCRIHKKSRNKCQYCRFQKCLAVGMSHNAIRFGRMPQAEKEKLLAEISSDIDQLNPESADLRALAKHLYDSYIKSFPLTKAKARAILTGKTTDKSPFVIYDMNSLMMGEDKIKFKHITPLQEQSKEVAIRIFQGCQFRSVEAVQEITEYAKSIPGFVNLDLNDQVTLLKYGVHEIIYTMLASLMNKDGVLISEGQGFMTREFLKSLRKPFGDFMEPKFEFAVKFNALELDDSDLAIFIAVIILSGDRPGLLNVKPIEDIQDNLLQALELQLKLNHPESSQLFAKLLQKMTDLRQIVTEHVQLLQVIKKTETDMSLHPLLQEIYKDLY
- ASSAY_PROTOCOL: Agonist activity at human PPARgamma

COMPOUND | TARGET_OR_SYSTEM | EC50 (nM)
CCCOc1ccc(CC(Cc2ccccc2)C(=O)O)cc1CNC(=O)c1ccc(-c2ncccn2)cc1 (stereo unspecified) | Peroxisome proliferator-activated receptor gamma (Homo sapiens, UniProt P37231) | 34.6

###

- TARGET_OR_SYSTEM: Retinoic acid receptor beta (Homo sapiens, UniProt P10826)
- Sequence (P10826 whole entry): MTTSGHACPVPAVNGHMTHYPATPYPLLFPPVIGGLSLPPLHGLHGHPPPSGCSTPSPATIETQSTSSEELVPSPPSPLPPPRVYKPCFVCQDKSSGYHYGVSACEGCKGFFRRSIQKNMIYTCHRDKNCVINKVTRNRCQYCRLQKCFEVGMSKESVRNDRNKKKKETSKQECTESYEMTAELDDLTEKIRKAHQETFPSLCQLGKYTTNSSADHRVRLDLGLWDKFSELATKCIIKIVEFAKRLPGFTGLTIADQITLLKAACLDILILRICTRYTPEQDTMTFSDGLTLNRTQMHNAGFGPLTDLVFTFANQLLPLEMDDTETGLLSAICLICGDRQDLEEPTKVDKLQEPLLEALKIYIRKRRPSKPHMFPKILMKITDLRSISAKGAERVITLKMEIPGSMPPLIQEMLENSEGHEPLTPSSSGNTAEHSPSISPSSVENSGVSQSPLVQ
- ASSAY_PROTOCOL: Agonist activity at human RAR-beta2 receptor
pEC50: −log10 of the molar value.
PROPERTY: pEC50

ITEM_SMILES | ASSAY_RESULT
CCCCOCCOc1nc(-c2ccc(C(=O)O)cc2)sc1C | 5.10
CCCCCCCCc1ccc(-c2ccc(C(=O)O)cc2)cc1 | 5.16

###

- TARGET_OR_SYSTEM: CDK2/Cyclin A2 (Homo sapiens)
- ASSAY_PROTOCOL: Inhibition of CDK2/Cyclin A (unknown origin)
pIC50: −log10 of the molar value.
PROPERTY: pIC50

COMPOUND | ASSAY_RESULT
O=C(Cc1ccc2ccccc2c1)NC1=CC(C2CC2)=CC1 | 7.43
CC(C(=O)NC1=CC(C2CC2)=CC1)c1ccc(N2CCCC2=O)cc1 (configuration not stated) | 7.43

###

# reported Therm_solubility; entries follow
- EXPERIMENTAL_SETUP: buffer

COMPOUND | Therm_solubility, µg/mL
Nc1nc2cc(-c3ccc(CCCc4ccccc4)cc3)cc(CCC(=O)O)c2c(=O)n1CC1CCCO1 (stereo unspecified) | 0.17
O=C(O)c1c(O)c(Cc2ccc(Cl)cc2)nc2c3c(ccc12)CCCC3 [PSI-697] | 1
C=CC(=O)Nc1cccc(N2C(=O)N(Cc3ccccc3)Cc3cnc(Nc4ccc(N5CCN(C)CC5)cc4OC)nc32)c1 | 4000
Cc1cc(C#N)cc(C)c1Oc1nc(Nc2ccc(C#N)cc2)nc(N)c1Br [ETRAVIRINE] | 1
COc1c(/C=C/c2ccc(NS(C)(=O)=O)cc2)cc(N2CCC(=O)NC2=O)cc1C(C)(C)C | 20700
CCCCOc1ccc(-c2cccc(C(=O)O)c2)cc1CNC(=O)c1ccc(C(F)(F)F)cc1F | 1
COc1cc2c(cc1OC)CN(C(=O)/C=C/c1c(-c3ccccc3)n(C)c3ncccc13)CC2 | 141
O=C1NC(=O)C(c2ccccc2)(c2ccccc2)N1 [PHENYTOIN] | 20000
CC(C)c1cccc(C(C)C)c1NC(=O)CCCCCCCCSc1nc2ccccc2o1 | 0.03
COc1ccc2c3c(c4cc(OC)c(OC)cc4c2c1)C[C@H]1CCCN1C3 [(-)-ANTOFINE] | 1

###

- ASSAY_PROTOCOL: physchem
- EXPERIMENTAL_SETUP: buffer

MOLECULE | solubility thermodynamic / µg/mL
CCCCCCCCc1ccc(-c2ccc(C(=O)O)cc2)cc1 | 1
CCCN(CCOC)c1cc(C)nc2c(-c3ccc(OC)cc3OC)c(C)nn12 | 10000
CCCOc1ccc(CC(Cc2ccccc2)C(=O)O)cc1CNC(=O)c1ccc(-c2ncccn2)cc1 (configuration not stated) | 301
O=C(C(=O)N1CCN(C(=O)c2ccccc2)CC1)c1c[nH]c2c(-n3ccnn3)ncc(F)c12 | 7
COCCCc1nc(CCOc2ccc(CC(Nc3ccccc3C(=O)c3ccccc3)C(=O)O)cc2)c(C)s1 (configuration not stated) | 210
NC(=O)Nc1ccc2c(c1)/C(=C/c1cc(-c3ccccn3)c[nH]1)C(=O)N2 | 29
O=c1cc(-c2c(F)cccc2F)oc2ccc3ccccc3c12 | 153
O=C1C(=O)c2ccccc2C2=C1CCc1nc(CN3CCN(Cc4ccccc4)CC3)oc12 | 500
Cc1sc(N2CCOCC2)nc1CCOc1ccc(CC(Nc2ccccc2C(=O)c2ccccc2)C(=O)O)cc1 (configuration not stated) | 180
Cc1cc([N+](=O)[O-])ccc1S(=O)(=O)N(CCO)/N=C/c1cnn2ccc(C#N)cc12 | 1.2
